assay: Volume of distribution at steady state was determined in rats at 2 mg/kg, i.v. dose; type: ADME, organism-based; parameters: dose 2 mg/kg, route intravenous; conditions: rat, in vivo, iv, read-out: Vdss
PROPERTY LABEL: Vd (L/kg)
Field format: number, assumed L/kg, no unit text.

Exercise: Given the entry CCOc1ccc(-n2c(C)c3c(C)nnc(C)c3c2C)cc1 , report its measured Vd.
Key: 1.3

====

test: Maximum plasma concentration in rats at 10 mg/kg, p.o. dose; type: ADME, organism-based; parameters: dose 10 mg/kg, route oral; settings: rat, po
PROPERTY LABEL: Cmax (µM)
Field format: number, assumed µM, no unit text.

Exercise: Given the entry CCOc1ccc(-n2c(C)c3c(C)nnc(C)c3c2C)cc1 , report its measured Cmax.
Key: 3.6
